We begin with a simple list: items and their reported abundance fitness.
B1: Histone H1t, residues 44 to 112; numbered along this chain, P22492 (parent)
chain: VSKLITEALSVSQERVGMSLVALKKALAAAGYDVEKNNSRIKLSLKSLVNKGILVQTRGTGASGSFKLS

- Variants of: B1
- Protocol Description: abundance fitness (aPCA) (normalised: wild type 0, dead -1); higher = more abundant; growth selection in yeast, the domain comes from the species named
- Test Settings: Homo sapiens
The answer should be a number; do not append a unit.

Consider the worked cases shown below.
In [3]: df
Out[3]:
   variant_label  reported_endpoint  data_value
0           G52P  abundance fitness       -0.39
1           E35N  abundance fitness      -0.064
2           A29V  abundance fitness      -0.215
3           A30E  abundance fitness      -0.404
4           G64P  abundance fitness       0.168

Input line: Given the entry S44A , report its measured abundance fitness.
Output line: 0.324

Input line: How about this variant: A62G
Output line: 0.104

Input line: And then K46S , what is it?
Output line: -0.332

Input line: Note, next up: K24P
Output line: -1.22

Input line: What about this variant? F66N
Output line: -0.119

Input line: Entry Q56G please
Output line: 0.005

Input line: Would you mind doing T60K as well?
Output line: 0.013

Input line: And what about the variant V34G ?
Output line: -0.306

Input line: Record: A29P
Output line: -0.491

Input line: One more variant: V21M
Output line: -0.037

Input line: Then I53Y ?
Output line: -0.184

Input line: Another: A29I
Output line: -0.248
